Biological target: Neuronal acetylcholine receptor; alpha9/alpha10 (Homo sapiens) (UniProt Q9UGM1+Q9GZZ6)
Test: Antagonist activity at human alpha9alpha10 nAChR expressed in Xenopus laevis oocytes assessed as inhibition of ACh-induced current amplitude at -80 mV holding potential at 100 nM by two-electrode voltage clamp method
Assay type: cell-based
Conditions: Oocyte
Positions of bridges follow the written chain, without caps; N, C: chain ends. Non-standard residues stand in square brackets, D forms with d. Residues, ends and D or L forms follow the SMILES beside them. ξ: configuration not given here. ξDab = NCCC(N)C(=O)O
Provide the reported inhibition of each item.
One number for each entry, in %.

INSERT INTO assay_data (compound, endpoint_value) VALUES
  ('CC[C@H](C)[C@@H]1NC(=O)[C@H](CC(=O)O)NC(=O)[C@@H]2CCCN2C(=O)[C@H](CC(N)=O)NC(=O)[C@H](CC(N)=O)NC(=O)[C@H](C(C)C)NC(=O)[C@H](CO)NC(=O)[C@@H]2CSSC[C@H](NC(=O)CN)C(=O)N[C@@H](CSSC[C@@H](C(N)=O)NC1=O)C(=O)N[C@@H]([C@@H](C)O)C(=O)N[C@@H](Cc1cnc[nH]1)C(=O)N1CCC[C@H]1C(=O)N[C@@H](C)C(=O)N2 (H-GCCTHPACSVNNPDIC-NH2; disulfide 2-8, 3-16)', 10);

Continue with the compound presented below.
Query :: Provide the documented inhibition with Neuronal acetylcholine receptor; alpha9/alpha10 (Homo sapiens) (UniProt Q9UGM1+Q9GZZ6) as the system for CC[C@H](C)[C@@H]1NC(=O)[C@H](CC(=O)O)NC(=O)[C@@H]2CCCN2C(=O)[C@H](CC(N)=O)NC(=O)[C@H](CC(N)=O)NC(=O)C(CCN)NC(=O)[C@H](CO)NC(=O)[C@@H]2CSSC[C@H](NC(=O)CN)C(=O)N[C@@H](CSSC[C@@H](C(N)=O)NC1=O)C(=O)N[C@@H](CO)C(=O)N[C@@H](Cc1cnc[nH]1)C(=O)N1CCC[C@H]1C(=O)N[C@@H](C)C(=O)N2 (stereo not given in full) (H-GCCSHPACS[ξDab]NNPDIC-NH2; disulfide 2-8, 3-16)
Result :: 35
